test: small-molecule microarray binders of probe aCHRDL2, primary screen, biochemical, biotinylated probe, 635/667 nm fluorescence (AID 1100); details: higher = more signal
Given measured composite z-score, output 1.0 if it is greater than or equal to 0.3 and 0.0 if not.

compound	label_value
C=CCN(Cc1ccccc1)C(=O)C(c1cccs1)N(CCOCCO)C(=O)/C=C\C(=O)O (configuration not stated)	0.0
C=CCOC(=O)[C@@H]1[C@H]2C(=O)O[C@H](c3ccccc3)[C@H](c3ccccc3)N2[C@H](c2ccc(OCCOC(=O)[C@@H]3C[C@@H]4C(=O)N[C@@H](CCCCN(C)C)C(=O)N4[C@@H]3c3ccc(O)cc3)cc2)[C@@]12C(=O)Nc1ccc(I)cc12	0.0
COCCn1c(C(=O)N2CCCC2)cc2c1C[C@H]1CN(C(=O)c3ccccc3)[C@@](Cc3ccc(F)cc3)(C(=O)OC)[C@@H]21	1.0

Lookup: Could you tell me if the measured composite z-score of `COCCOC(=O)N1C(=O)[C@@]2(c3ccccc31)[C@H](c1ccccc1OCCO)N1[C@H](c3ccccc3)[C@H](c3ccccc3)OC(=O)[C@H]1[C@@H]2C(=O)Nc1nc2ccccc2s1` reaches 0.3 or more?
Found: 0.0

Lookup: Could you tell me if the measured composite z-score of `CCCCC(=C=CC[C@@H](O)c1ccccc1OCCO)CCO` reaches 0.3 or more?
Found: 0.0

Lookup: Could you tell me if the measured composite z-score of CN1C(=O)C2C=CC(C(O)C3CCCCC3)N(Nc3ccc([N+](=O)[O-])cc3[N+](=O)[O-])C2C1=O (configuration not stated) reaches 0.3 or more?
Found: 1.0

Lookup: Could you tell me if the measured composite z-score of `COC(=O)[C@@]1(Cc2ccc(F)cc2)[C@H]2c3cc(C(=O)N(C)C)n(Cc4nc5ccccc5[nH]4)c3C[C@H]2CN1C(=O)c1ccccc1` reaches 0.3 or more?
Found: 1.0

Hey, just so you know, these numbers are from PubChem BioAssay.
